assay: NCI Yeast Anticancer Drug Screen. Data for the mlh1 rad18 strain (AID 175); conditions: S. cerevisiae mlh1 rad18 strain growth inhibition; at 50.0 µM (retest, dose inferred, filed as 5.0); hits give high values
Compounds without any hit were thinned out: in the full panel of roughly 79,000, 15% have a hit.
Overview of reported growth inhibition across a group of compounds:
reported-endpoint: growth inhibition (%)

INSERT INTO measurements (compound, reported_endpoint, assay_value) VALUES
  ('ClCc1nnc2n1-c1ccc(Cl)cc1SC2', 'growth inhibition', 87),
  ('CCCCCCCNCCCCCC', 'growth inhibition', 94),
  ('CCOC(=O)/C(=C\c1ccc(-c2ccccc2)cc1)C(C)=O', 'growth inhibition', 94),
  ('Cc1cc(N(CCOS(C)(=O)=O)CCOS(C)(=O)=O)ccc1C=Nc1ccc(-c2csc(-c3ccc(Cl)cc3)n2)cc1', 'growth inhibition', 95),
  ('CNc1ccc(N)cc1', 'growth inhibition', -5),
  ('CN(C)c1ccc(/C=C(\C#N)c2c(F)cccc2F)cc1', 'growth inhibition', -1),
  ('Nc1nnc(-c2cc([N+](=O)[O-])cc([N+](=O)[O-])c2)o1', 'growth inhibition', 3),
  ('NC(CCC(=O)NC(CS(=O)(=O)O)C(=O)O)C(=O)O (stereo unspecified)', 'growth inhibition', -2),
  ('CC1CC(c2ccccc2)CC(C)N1c1ccc2ccccc2c1 (stereo unspecified)', 'growth inhibition', 84),
  ('CSC(=S)N/N=C(\C)c1nccnc1C', 'growth inhibition', 98),
  ('COc1cccc(C2c3cc4c(cc3OC(NNS(=O)(=O)c3ccc(C)cc3)C2C)OCO4)c1O (stereo unspecified)', 'growth inhibition', 94),
  ('CC(=O)OCC1OC(OC(C)=O)C(On2nnc3c(-c4ccccc4)c(C)nn32)C(OC(C)=O)C1OC(C)=O (stereo unspecified)', 'growth inhibition', 58),
  ('O=C1c2cc3c(cc2CC1Br)CCC3 (stereo unspecified)', 'growth inhibition', 99),
  ('N#[N+]c1ccc2c(S(=O)(=O)Oc3ccc(C(=O)c4ccccc4)c(OS(=O)(=O)c4cccc5c([O-])c([N+]#N)ccc45)c3)cccc2c1[O-]', 'growth inhibition', 4),
  ('COc1ccc2c(c1)C(=O)C(Br)CC2 (stereo unspecified)', 'growth inhibition', 99),
  ('O=C1C=CC(=O)N1C1CCCCC1', 'growth inhibition', 99),
  ('O=C(CC1(O)C(=O)Nc2c(Cl)ccc(Cl)c21)c1ccc(Cl)cc1Cl (stereo unspecified)', 'growth inhibition', 19),
  ('O=C(CC1(O)C(=O)Nc2c(Cl)cc(Cl)cc21)c1ccc(Cl)cc1 (stereo unspecified)', 'growth inhibition', 97),
  ('O=c1ccccn1CCc1cccc2cc(O)ccc12', 'growth inhibition', 3),
  ('CCOC(=O)/C(Cl)=C(\OCC)C(=O)OCC', 'growth inhibition', 22),
  ('O=C1C=CC(=O)c2c(O)c(N3CCC[C@H]3CO)c(Cl)c(O)c21', 'growth inhibition', 90),
  ('CC(=O)c1csc2c1C(=O)c1scc(C(C)=O)c1C2=O', 'growth inhibition', 49),
  ('CC(C)/C(Cl)=N\OC(=O)Nc1ccc(S(N)(=O)=O)cc1', 'growth inhibition', 38),
  ('Cn1cc(/C=C/[N+](=O)[O-])c2ccc(OCc3ccccc3)cc21', 'growth inhibition', 11),
  ('CC(=O)Nc1ccc(C(=O)n2[nH]c(C)c(/C=C3\C(=O)C=Cc4ccccc43)c2=O)cc1', 'growth inhibition', 99),
  ('O=C(O)C1C(C(=O)O)C23CC2(C(=O)O)C2(C(=O)O)CCC3=C3CCCC312 (stereo unspecified)', 'growth inhibition', 100),
  ('O=C(NC(=S)Nc1ncc([N+](=O)[O-])s1)c1ccccc1C(=O)NC(=S)Nc1ncc([N+](=O)[O-])s1', 'growth inhibition', 87),
  ('CCCCCCCCCCCC(=O)N1CCCC1', 'growth inhibition', 99),
  ('COc1ccc(-c2cscc2N)cc1', 'growth inhibition', 56),
  ('CNC(=O)OC(C)CN1c2ccccc2Sc2ccc(Cl)cc21 (stereo unspecified)', 'growth inhibition', 98),
  ('CC(=O)OC1(C)C(=C(Cl)Cl)C2c3ccccc3C1c1ccccc12 (stereo unspecified)', 'growth inhibition', 91),
  ('CC(=O)Nc1cccc2ccc(C)cc12', 'growth inhibition', 2),
  ('OC(CCl)COc1c(Cl)c(Cl)c(Cl)c(Cl)c1Cl (stereo unspecified)', 'growth inhibition', 5),
  ('N#CCC1CC(=O)c2[nH]c3ccccc3c2C1 (stereo unspecified)', 'growth inhibition', -121),
  ('COc1cccc(N2C(=O)C3CC(CC(C)(C)C)c4c([nH]c5ccccc45)C3C2=O)c1 (stereo unspecified)', 'growth inhibition', 30),
  ('Cc1ccc2c(c1)[n+]([O-])c(N)c(C#N)[n+]2[O-]', 'growth inhibition', 96),
  ('Cc1ccc(N=NC(C(=O)c2ccccc2)C(=O)c2ccccc2)cc1', 'growth inhibition', 95),
  ('CC(=O)n1nc2c(c1CC(C)C)C(=O)C(Nc1ccccc1)=CC2=O', 'growth inhibition', 99),
  ('CC1(COc2ccccc2OCC2(C)CO2)CO1 (stereo unspecified)', 'growth inhibition', 36),
  ('CC(C)(C)c1ccc(CN2CCN(C(c3ccccc3)c3ccc(Cl)cc3)CC2)cc1 (stereo unspecified)', 'growth inhibition', 61),
  ('CCCCCCCCCCCCCCCCOP(=O)([O-])OCC[N+](C)(C)C', 'growth inhibition', 99),
  ('Cc1ccc(C)c(N2C(=O)C(=O)C(c3nc4ccccc4o3)C(=O)C2=O)c1', 'growth inhibition', 98),
  ('CCCCCCCCCCCCCCNCc1ccccc1', 'growth inhibition', 97),
  ('CC(C)(CN1CCCCC1)C(=O)/C=C/c1ccc(Cl)c(Cl)c1', 'growth inhibition', 97),
  ('CC(C)OC(=O)c1ccc(NCc2cc(O)ccc2O)cc1Cl', 'growth inhibition', 98),
  ('COc1ccc2nc3cc([N+](=O)[O-])ccc3c(NNc3ccc([N+](=O)[O-])cc3)c2c1', 'growth inhibition', 0);
